# assayed_system: T1, nonhuman primate CD36 (on HEK 293 cells) (cynomolgus monkey / rhesus macaque, UniProt P16671 2-472 (human entry))
# T1 construct: also called non-human primate CD36 (cynomolgus)
# T1 sequence (P16671 other isoform, or with tags, fused parts or gaps limits assumed): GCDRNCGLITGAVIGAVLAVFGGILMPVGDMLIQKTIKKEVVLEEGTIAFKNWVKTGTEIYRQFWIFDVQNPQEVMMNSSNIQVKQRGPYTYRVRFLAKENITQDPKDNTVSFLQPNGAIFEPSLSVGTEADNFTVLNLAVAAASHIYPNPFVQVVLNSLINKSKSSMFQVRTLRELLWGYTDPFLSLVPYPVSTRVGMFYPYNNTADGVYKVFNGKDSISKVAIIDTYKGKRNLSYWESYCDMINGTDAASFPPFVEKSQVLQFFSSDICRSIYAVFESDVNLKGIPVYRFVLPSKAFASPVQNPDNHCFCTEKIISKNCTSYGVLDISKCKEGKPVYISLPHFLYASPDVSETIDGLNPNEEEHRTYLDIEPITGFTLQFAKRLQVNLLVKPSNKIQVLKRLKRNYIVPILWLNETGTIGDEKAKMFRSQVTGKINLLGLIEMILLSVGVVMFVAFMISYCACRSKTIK
# test_summary: FACS, HEK 293 cells transiently overexpressing CD36;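 note: antibody binding to transfected cells detected by flow cytometry with a fluorescent anti-human secondary antibody, EC50 from a four-parameter sigmoidal fit of mean fluorescence intensity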
Assignment: determine reported EC50 for the given binders.
Value expressed in nM; do not type the unit.

Form field EC50, entry 25G04 (antibody, human IgG1, V domains shown, Chimeric: mouse variable regions on human IgG1 LALA (L234A/L235A)) VH: EVQLQQSGAELVKPGASVKLSCKASGYTFTSYWMHWVKQRPGQGLEWIGEIDPSDSHANYNQKFKGKATLTVDKSSSTAYMQLSSLTSEDSAVYYCAPIYYGLDNWGQGTTLTVSS VL: DIVLTQSQKFMSTSVGDRVSVTCKASQNVGTNVAWYQQKPGQSPKALIYSASYRYSGVPDRFTGSGSGTDFTLTISNVQPEDLAEYFCQQYNSYPLTFGGGTKLEIK : 2.19

Form field EC50, entry 12G04 (antibody, human IgG1, V domains shown, Chimeric: mouse variable regions on human IgG1 LALA (L234A/L235A); also called 012G04) VH: EVQLVESGGGLVQPGESLKLSCESNEYEFPSHDMSWVRKTPEKRLELVAAINSDGGYTYYPDTMERRFIISRDNTKKTLYLQMSSLRSEDTALYYCARHGYDYDEEGAWFAYWGQGTLVTVSA VL: ETTVTQSPASLSMAIGEKVTIRCITSTDIDDDMNWYQQKPGEPPKLLISEGNTLRPGVPSRFSSTGYGTDFVFSIENMLSEDVADYYCLQSDNLPFTFGSGTKLEIK : 0.67

Data origin: patent US20250206836A1
